B1: Calcium-binding protein 2, residues 155 to 219; numbered along this chain, Q9NPB3 (parent)
chain: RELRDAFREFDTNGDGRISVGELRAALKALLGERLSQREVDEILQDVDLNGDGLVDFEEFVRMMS

variants of: B1; assay: abundance fitness (aPCA) (normalised: wild type 0, dead -1); higher = more abundant; growth selection in yeast, the domain comes from the species named; settings: Homo sapiens
Assignment: determine reported abundance fitness for the given variants.
Numbers only.

Worked cases, answers included:
SEQUENCE_CHAIN: RELRDAFREFDTNGDGRISVGELRAALKALLGERLSQREVDEILYDVDLNGDGLVDFEEFVRMMS
abundance fitness: -0.16
//
SEQUENCE_CHAIN: RELRDAFREFDTNGDGRISVGELRAALKALLGERLSQREVDEILQDVDLNGDGAVDFEEFVRMMS
abundance fitness: -0.211
//
SEQUENCE_CHAIN: RELRDAFAEFDTNGDGRISVGELRAALKALLGERLSQREVDEILQDVDLNGDGLVDFEEFVRMMS
abundance fitness: -0.04

Please state, for each entry, its recorded abundance fitness.
1. RELRDAFREFDTNGDGRISVGELRAALKALLGERLSQREVDEILQDVDLNGDGLVDFEIFVRMMS
2. RELRDAFREFDTNGDGRISVGELRAALKALLGERLSQREVDEILQDVDLNGDGPVDFEEFVRMMS
3. RELRDAFREFDTNTDGRISVGELRAALKALLGERLSQREVDEILQDVDLNGDGLVDFEEFVRMMS
4. RELRDAFREFDTNGDGRISVGELRAALKALLGERLSQREVDEILQDTDLNGDGLVDFEEFVRMMS
5. RELRDAFREFDTNGDGRISVGELRDALKALLGERLSQREVDEILQDVDLNGDGLVDFEEFVRMMS

Reply |
1. -0.051
2. -0.291
3. -0.547
4. -0.041
5. 0.045
